# MEASURED TARGET: YOD1 (UniProt Q5VVQ6)
# Sequence (whole entry): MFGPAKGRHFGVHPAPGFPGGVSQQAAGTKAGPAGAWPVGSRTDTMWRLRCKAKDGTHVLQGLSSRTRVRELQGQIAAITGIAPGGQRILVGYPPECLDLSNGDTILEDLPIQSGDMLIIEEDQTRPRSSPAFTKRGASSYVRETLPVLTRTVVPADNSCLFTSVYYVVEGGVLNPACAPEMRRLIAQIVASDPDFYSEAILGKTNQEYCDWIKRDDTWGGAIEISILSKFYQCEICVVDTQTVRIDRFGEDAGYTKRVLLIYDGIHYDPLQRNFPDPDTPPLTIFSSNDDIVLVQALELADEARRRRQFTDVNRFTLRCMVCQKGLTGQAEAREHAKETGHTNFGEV
# ASSAY REMARKS: log2 ratio of Biotin-Ahx-Ub-VS probe labelling (fragment/DMSO); higher = less target engagement (more negative = stronger competition), active = hit call of the paper (q ≤ 0.05, log2 ratio ≤ -1)
# STATED CONDITIONS: compound concentration: 200 uM; treatment time: 3 h
// label = Criterion met if log2 ratio of Biotin-Ahx-Ub-VS probe labelling is not less than -0.09, otherwise Criterion not met

- COMPOUND: "Cc1noc(C)c1CNC(=O)CCl"
  GROUP: "Criterion not met"
- COMPOUND: "CNC(=O)C1CCN(C(=O)CCl)CC1"
  GROUP: "Criterion not met"
- COMPOUND: "Cl.Cn1ncc2c1CC(NC(=O)CCl)CC2 (centres undefined)"
  GROUP: "Criterion met"
- COMPOUND: "Cc1cc(C2CCCN2C(=O)CCl)nn1C.Cl (centres undefined)"
  GROUP: "Criterion not met"
- COMPOUND: "O=C(CCl)N1CCOC2(CCC2)C1"
  GROUP: "Criterion met"
- COMPOUND: "CC1Cc2ccccc2N1C(=O)CCl (centres undefined)"
  GROUP: "Criterion not met"
- COMPOUND: "O=C(CCl)NC1(c2ccc3c(c2)OCCO3)CCCC1"
  GROUP: "Criterion not met"
- COMPOUND: "Cc1ccc(CNC(=O)CCl)nc1C.Cl"
  GROUP: "Criterion not met"
- COMPOUND: "O=C(CCl)N1CCCC2CCCCC21 (centres undefined)"
  GROUP: "Criterion met"
- COMPOUND: "Cc1ccccc1C1(CNC(=O)CCl)CCOCC1"
  GROUP: "Criterion met"
- COMPOUND: "O=C(CCl)NCc1cccc(N2CCCC2=O)c1"
  GROUP: "Criterion met"
- COMPOUND: "C#Cc1cccc(NC(=O)CCl)c1"
  GROUP: "Criterion met"
- COMPOUND: "O=C(CCl)Nc1cccc(C(=O)N2CCSCC2)c1"
  GROUP: "Criterion not met"
- COMPOUND: "O=C(CCl)N(C1=CCCCC1)C1CC1"
  GROUP: "Criterion met"
